This collection of values is drawn from PubChem BioAssay (NCI).

Tested on: EKVX NSCLC
Experiment: NCI-60 one-dose screen, 48 h
Details: 10 µM unless noted
Method: Growth inhibition of the EKVX human Non-Small Cell Lung tumor cell line is measured as a screen for anti-cancer activity. Cells are grown in 96 well plates and exposed to the test compound for 48 hours. Compounds are tested at a single concentration, which is 10^-5 M for most compounds. The reported endpoint is percent growth (GI% or GIPRCNT), where numbers from 0 - 100% represent growth inhibition, and numbers from -100% - 0 represent cell death. […]
About 83,000 compounds went through this panel and 20% of them were active in at least one assay; those are over-represented in the sample as a whole. Active and inactive are the calls of the source. Rule for the calls: active = growth percent below 10; inactive = the rest.
Parameter call: string, one of yes (active), no (inactive)

# SAMPLE SMILES, CATEGORY
measured = [
    ("Cc1oc2ccc(O)c(CN3CCCCCC3)c2c1C(=O)Nc1ccc(C(F)(F)F)cc1", "no"),
]

How did this test come out for `C=CCNc1nc(O)c(/C=C2\C=Nc3ncccc32)s1` ?
no

How did this test come out for `CC1=C2[C@@H](CC1)[C@]1(C)O[C@@](C(C)C)(C[C@H]1OC(=O)CO)[C@H]2OC(=O)CCCc1ccccc1` ?
no

How did this test come out for `Cn1cc(-c2nc(-c3c[nH]c4ccncc34)cs2)c2cc(F)ccc21` ?
yes

How did this test come out for `CCOC(=O)c1ccc2c(c1)[n+](=O)c(C(C)=O)c(C(F)(F)F)n2[O-]` ?
no
